Molecular target: human TREM2 (Homo sapiens, UniProt Q9NZC2)
Construct: expressed in transfected cells; host or cells: HEK293T
Sequence (Q9NZC2 19-230): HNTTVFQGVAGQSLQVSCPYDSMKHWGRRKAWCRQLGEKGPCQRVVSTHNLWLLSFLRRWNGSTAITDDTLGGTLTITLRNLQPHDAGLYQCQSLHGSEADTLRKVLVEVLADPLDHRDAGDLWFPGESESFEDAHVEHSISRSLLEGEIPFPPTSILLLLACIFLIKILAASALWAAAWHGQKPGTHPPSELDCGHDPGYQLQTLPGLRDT
Sequence (O43914 22-113 partner): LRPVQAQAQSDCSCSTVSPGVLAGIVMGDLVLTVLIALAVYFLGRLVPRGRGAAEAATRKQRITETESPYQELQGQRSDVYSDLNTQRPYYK
Experiment: TREM2 agonist potency by cellular phosphorylation of Syk (AlphaLisa) in HEK293T-hTREM2 cells
Format: cell-based
Details: HEK293 cells expressing human TREM2 and DAP12, Table D
Description: In Vitro Measurement of Triggering Receptor Expressed on Myeloid Cells 2 Activity Using Cellular Phosphorylation of Spleen Tyrosine Kinase (“Syk”) Assays Measurement of TREM2 agonist potency was done using a HEK cell line expressing human TREM2 and DAP12 (HEK293T-hTREM2 cells). Binding of small molecules to, and activation of, TREM2 increases the phosphorylation of Syk. The resultant levels of Syk phosphorylation are measured using a commercial AlphaLisa reagent kit. […]
Assign EC50 to each entry below.

{"molecule": "Cc1cnc2c(C34CC(C(F)(F)F)(C3)C4)nc(N3C[C@@H](C)O[C@@H](c4cnn(C5CC5)c4)C3)nc2n1 [Example 126]", "result": "< 50 nM"}
{"molecule": "[2H]C1([2H])C[C@H](c2nc(-c3ccc(Cl)cc3F)c3nc(C)c(C)nc3n2)C[C@H](c2cnn(C3CC3)c2)O1", "result": "< 50 nM"}
{"molecule": "Cc1nc2nc(-c3ccc(Cl)cc3F)cc([C@@H]3CCO[C@@H](c4cnn(C5CC5)c4)C3)c2nc1C", "result": "50 to 500 nM"}
{"molecule": "Cc1nc2cc([C@@H]3CCO[C@H](c4cnn(C5CC5)c4)C3)cc(-c3ccc(Cl)cc3F)c2nc1C", "result": "500 to 3000 nM"}
{"molecule": "Cc1cc([C@@H]2C[C@H](c3nc(-c4cc(F)c(Cl)c(F)c4)c4nc(C)c(C)nc4n3)CCO2)ccn1", "result": "3000 to 100000 nM"}
{"molecule": "Cc1ccc2c(-c3ccc(F)cc3F)cc([C@H]3CCO[C@@H](c4cnn(C5CC5)c4)C3)nc2n1", "result": "50 to 500 nM"}

Challenge: Enter recorded EC50 with human TREM2 (Homo sapiens, UniProt Q9NZC2) for "Cc1cnc2c(-c3ccc(Cl)cc3F)nc([C@H]3C[C@@H](C)O[C@@H](c4cnn(C5CC5)c4)C3)nc2n1" here.
Response given: 50 to 500 nM

###

Field: EC50. Provide a value for each of the molecules that follow.
Biological target: human TREM2 (Homo sapiens, UniProt Q9NZC2)
Construct: expressed in transfected cells; host or cells: HEK293T
Assay: TREM2 agonist potency by cellular phosphorylation of Syk (AlphaLisa) in HEK293T-hTREM2 cells
Type: cell-based
Details: HEK293 cells expressing human TREM2 and DAP12, Table D

Consider the following illustrative entries.
{"molecule": "Cc1nc2nc([C@@H]3CCO[C@H](c4cnn(C5CC5)c4)C3)nc(-c3ccc(C(F)(F)F)cc3)c2nc1C", "EC50": "50 to 500 nM"}
{"molecule": "Cc1ccc2c(C34CC(C(F)(F)F)(C3)C4)nc([C@H]3C[C@@H](C)O[C@@H](c4cnn(C5CC5)c4)C3)nc2n1", "EC50": "500 to 3000 nM"}
{"molecule": "Cc1nc2nc(N3CCO[C@@H](c4cc[nH]c(=O)c4)C3)nc(-c3ccc(C(F)(F)F)nc3)c2nc1C", "EC50": "< 50 nM"}
{"molecule": "Cc1ccc2c(C34CC(C(F)(F)F)(C3)C4)nc([C@H]3CCO[C@@H](c4cnn(C5CC5)c4)C3)nc2n1", "EC50": "< 50 nM"}
{"molecule": "Cc1nc2nc(-c3ccc(Cl)cc3F)cc(C3CCO[C@@H](c4cnn(C5CC5)c4)C3)c2nc1C (some centres unmarked)", "EC50": "< 50 nM"}
{"molecule": "Cc1nc2nc([C@H]3CCO[C@@H](c4cnn(C5CC5)c4)C3)nc(C3CCCCC3)c2nc1C", "EC50": "< 50 nM"}
{"molecule": "[2H]C([2H])([2H])c1nc2nc([C@@H]3CCO[C@H](c4ccnc(C)c4)C3)nc(-c3ccc(Cl)c(F)c3F)c2nc1C([2H])([2H])[2H]", "EC50": "< 50 nM"}

Kindly review the next molecule as well.
Challenge: # return EC50 of "Cc1nc2nc([C@H]3CCO[C@@H](c4cnn(C5CC5)n4)C3)nc(-c3ccc(F)cc3F)c2nc1C" (system: human TREM2 (Homo sapiens, UniProt Q9NZC2))
Response given: 50 to 500 nM
